Assay Summary: protein stability index of a GFP-peptide fusion (GPS, HEK-293T) (PSI 1-6); higher = more stable;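 note: 24-mer peptide tiles fused after GFP, lentivirally expressed, FACS-sorted into six equal bins by GFP/DsRed ratio, decoded by Illumina sequencing, PSI is the read-weighted mean bin number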
Experimental Parameters: treatment: MLN4924 1 uM, 8 h; c terminus: a fixed tail appended

# Sequence, protein stability index
measured = [
    ("GAFRKGKSFILDFMLRYLYSQKES [ATL3]", 2.22),
    ("YIEMQTDPANCDYVIVSGAQRKEE [YJU2B]", 4.57),
    ("QADLLAHLVPEPDRLEEQLPWLSL [DNAAF3]", 2.48),
    ("CWDMYRHDIDCQWVDITDVPPGDY [LOXL2]", 3.11),
    ("MASSSTVPLGFHYETKYVVLSYLG [BCL2L13]", 2.33),
    ("NVNVTLLSKQAKFAYKDEYEKFKL [TMEM120A]", 2.82),
    ("AARGKERCVRVFLEHGADPTVKDL [ASB7]", 3.76),
    ("AGYEVDKIAQNLDFVNLMAYDFHG [CHIT1]", 2.36),
    ("EEYTTGMADCILVNSQFTAAVFKE [ALG2]", 3.26),
    ("VHRGDGANPFQAYLDVDLTLTREQ [RTN2]", 3.82),
    ("FTCDLQHTETGEEVLRMCVAVKKK [VPS39]", 2.96),
    ("QTLSPDMQGAYCTFPASVLAPVPT [DUSP5]", 3.51),
    ("SCTVTTVQPMDRLPYQHFSAHFTS [TBX5]", 2.31),
]
